Test system: HT29 colon
measurement_protocol: NCI tumour cell line growth inhibition, 48 h
assay_readout: TGI

If you can, please state the reported TGI value of O=C(CNc1ccc(Cl)cc1)Nn1c(-c2ccccc2)nc2ccccc2c1=O .
21.1 µM

Same read-out for CCOC(=O)CC(NC(=O)c1nc[nH]c1[N+](=O)[O-])C(=O)OCC (stereo unspecified) ?
> 100 µM

Request: Cn1cc(C2=C(c3cn(CCCN=C(N)N)c4ccccc34)C(=O)NC2=O)c2ccccc21
> 25 µM

Same question, O=[N+]([O-])C(C(Cl)=C(Cl)Cl)=C(N1CCOCC1)N1CCOCC1 this time
> 100 µM

Next up: O=C1CCC(c2ccccc2)C(O)(C(=O)O)C1 (stereo unspecified)
> 100 µM

Please answer likewise for Cc1c2c(nn1-c1ccc(S(=O)(=O)/N=C3\SCC(=O)N3C(=O)c3ccccc3)cc1)-c1ccccc1CC2
> 100 µM

Same thing, different compound: O=C1C2=C(CC3C(C2)C3(Br)Br)C(=O)C2=C1CC1C(C2)C1(Br)Br (stereo unspecified)
> 100 µM

Also, COc1ccc(-n2c(SCc3cc(OC)c(OC)c(OC)c3)nc3ccc(C)cc3c2=O)cc1 please.
> 100 µM

Also, COc1ccc(-n2cc(-c3cc(OC)c(OC)c(OC)c3)[nH]c2=S)cc1OC please.
> 100 µM

Next entry: CC(=O)c1ccc(NC(=O)/C(Cc2ccccn2)=N/NC(=O)C[N+](C)(C)C)cc1
> 100 µM

Another compound: CC12CCCC(CC(=O)c3[nH]c4ccccc4c31)C2 (stereo unspecified)
6.27 µM

Please give the result for CN1CCC(OC(=O)Oc2ccccc2)(c2ccccc2)CC1 too.
26 µM

Lookup CCC1(O)C(=O)OCc2c1cc1n(c2=O)Cc2cc3c(N)cccc3nc2-1 (stereo unspecified)
22.8 µM

Record: COC(=O)c1ccc2c(c1)CC1(C2)Cc2cc3c(cc2C1=O)CCC3 (stereo unspecified)
34.7 µM

Same for COc1cccc(C2c3cc4c(cc3OC(N3CCCC3)C2C)OCO4)c1 (stereo unspecified)
18.4 µM

Lookup CCOC(=O)C(Cl)(NC(=O)c1ccc(F)cc1)C(F)(F)F (stereo unspecified)
> 100 µM

And the next one, Nc1nc(Cl)cc(NCC2(CO)CC(OCc3ccccc3)C2)n1 (stereo unspecified) ?
> 100 µM

What do you have for COc1ccc(/C(=N/Nc2ccc([N+](=O)[O-])cc2)Sc2cc(Cl)c(C)cc2S(N)(=O)=O)cc1 ?
6.89 µM

Please give the result for NCC(=O)NC(CCCC(NC(=O)CN)P(=O)(O)O)P(=O)(O)O (stereo unspecified) too.
> 100 µM

Thanks! And N#CCCN(CCC#N)c1ccc(/C=C2\N=C(CN3C(=O)c4ccccc4C3=O)OC2=O)cc1 ?
> 100 µM

Try this compound too: CC(=O)OC[C@H]1[C@@H]2C(CC[C@]13CO3)OC(=O)CC(C)[C@]2(C)CCc1ccoc1 (stereo partly specified)
> 100 µM

* * *

Please provide measured TGI for the entries that follow.
System: MCF7 breast
measurement_protocol: NCI tumour cell line growth inhibition, 48 h

Could you share which TGI value was measured for COc1ccc(-n2cc(-c3cc(OC)c(OC)c(OC)c3)[nH]c2=S)cc1OC ?
> 100 µM

How about CC(C(=O)O)c1cnn(-c2ccccc2)c1-n1cccc1 (centres undefined) ?
> 100 µM

Another compound to look at: CN1C(NC(=O)c2ccc(Cl)nc2)=NS(=O)(=O)c2cc(Cl)ccc21
> 100 µM

Can you handle O=C(c1ccccc1)c1c2ccccn2c2cccc[n+]12 next?
> 100 µM

And CN(CCCNc1ccc2ncn3c4ccccc4c(=O)c1c23)CCCN1C(=O)c2cccc3cc([N+](=O)[O-])cc(c23)C1=O ?
0.114 µM

Please answer likewise for Cc1nnc([C@@]2(C)CC[C@H]3[C@@H](CC=C4C[C@@H](O)CC[C@@]43C)[C@@H]2CC#N)o1
> 100 µM

Also need CC(=O)OC[C@]12CC[C@H]3[C@@H](C[C@H]4O[C@]45CC=CC(=O)[C@]35C)[C@]1(O)CC[C@@]2(O)[C@@](C)(O)C1CC(C)=C(C)C(=O)O1 (some centres undefined) , thanks.
> 25.3 µM

Entry to check: S=C1Cc2c([nH]c3ccccc23)-c2ccccc2N1
> 100 µM

Same thing, different compound: COc1ccc2cc(C(=O)/C=C/c3cccc(OC)c3OC)ccc2c1
22.9 µM
